- MEASURED TARGET: human Nav1.6 channels stably expressed in HEK 293 cells (Homo sapiens, UniProt Q9UQD0)
- Construct: expressed in transfected cells; host or cells: HEK 293
- Sequence (Q9UQD0 whole entry): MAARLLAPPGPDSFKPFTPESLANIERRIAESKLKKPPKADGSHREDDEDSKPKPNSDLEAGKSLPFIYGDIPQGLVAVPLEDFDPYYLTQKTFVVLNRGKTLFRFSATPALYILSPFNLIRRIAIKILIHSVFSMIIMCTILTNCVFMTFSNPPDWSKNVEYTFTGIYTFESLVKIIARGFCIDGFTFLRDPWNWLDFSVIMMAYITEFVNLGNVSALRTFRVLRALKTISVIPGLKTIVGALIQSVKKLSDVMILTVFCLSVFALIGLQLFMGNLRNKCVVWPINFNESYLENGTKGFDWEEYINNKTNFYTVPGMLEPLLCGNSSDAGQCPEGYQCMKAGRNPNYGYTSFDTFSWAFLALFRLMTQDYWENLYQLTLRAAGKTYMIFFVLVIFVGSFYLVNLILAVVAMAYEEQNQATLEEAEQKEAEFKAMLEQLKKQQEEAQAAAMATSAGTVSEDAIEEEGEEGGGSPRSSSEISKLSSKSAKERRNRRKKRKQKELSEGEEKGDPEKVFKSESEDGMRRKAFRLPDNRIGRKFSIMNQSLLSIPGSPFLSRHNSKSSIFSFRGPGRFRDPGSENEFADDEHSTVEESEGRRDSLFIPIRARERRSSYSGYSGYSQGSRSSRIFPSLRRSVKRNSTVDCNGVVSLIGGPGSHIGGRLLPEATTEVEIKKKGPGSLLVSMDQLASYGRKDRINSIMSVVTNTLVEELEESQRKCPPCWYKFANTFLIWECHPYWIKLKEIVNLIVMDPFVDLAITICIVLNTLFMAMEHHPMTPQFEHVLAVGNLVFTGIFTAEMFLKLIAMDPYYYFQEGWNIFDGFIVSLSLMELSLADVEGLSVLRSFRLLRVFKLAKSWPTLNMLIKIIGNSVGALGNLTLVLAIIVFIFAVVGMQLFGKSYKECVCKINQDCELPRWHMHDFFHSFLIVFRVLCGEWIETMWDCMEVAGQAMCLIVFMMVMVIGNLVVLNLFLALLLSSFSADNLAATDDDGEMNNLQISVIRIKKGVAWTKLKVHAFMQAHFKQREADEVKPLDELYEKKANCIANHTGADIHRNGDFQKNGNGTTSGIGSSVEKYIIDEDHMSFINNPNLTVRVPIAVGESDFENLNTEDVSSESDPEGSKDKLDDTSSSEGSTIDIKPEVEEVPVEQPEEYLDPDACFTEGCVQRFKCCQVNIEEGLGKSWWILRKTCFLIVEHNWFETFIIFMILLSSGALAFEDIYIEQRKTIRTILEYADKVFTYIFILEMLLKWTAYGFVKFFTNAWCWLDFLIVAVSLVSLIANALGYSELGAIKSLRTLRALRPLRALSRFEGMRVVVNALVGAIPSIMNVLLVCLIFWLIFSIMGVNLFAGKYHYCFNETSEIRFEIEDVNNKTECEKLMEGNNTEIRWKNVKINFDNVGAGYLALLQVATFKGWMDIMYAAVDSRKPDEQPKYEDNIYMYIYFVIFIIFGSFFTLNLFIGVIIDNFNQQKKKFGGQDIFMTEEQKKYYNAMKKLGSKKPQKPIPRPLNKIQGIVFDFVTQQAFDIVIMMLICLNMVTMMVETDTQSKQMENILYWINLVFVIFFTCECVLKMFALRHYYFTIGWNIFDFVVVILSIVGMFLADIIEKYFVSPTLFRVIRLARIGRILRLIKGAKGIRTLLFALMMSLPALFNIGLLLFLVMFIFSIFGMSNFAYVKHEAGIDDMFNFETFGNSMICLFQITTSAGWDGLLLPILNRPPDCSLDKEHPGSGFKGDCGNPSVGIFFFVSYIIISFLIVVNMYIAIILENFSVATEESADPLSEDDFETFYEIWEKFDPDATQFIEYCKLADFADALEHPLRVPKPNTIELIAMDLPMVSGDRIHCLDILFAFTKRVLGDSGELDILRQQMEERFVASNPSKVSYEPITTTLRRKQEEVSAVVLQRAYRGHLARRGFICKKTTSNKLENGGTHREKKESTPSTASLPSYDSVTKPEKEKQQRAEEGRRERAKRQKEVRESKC
- METHOD SUMMARY: Qube automated patch-clamp assay, inhibition of sodium current
- Assay type: cell-based
- CONDITIONS: holding potential −65 mV; max concentration tested 33750 nM
REPORTED ENDPOINT: IC50

C[C@@H](N)C(CNc1cc(F)c(S(=O)(=O)Nc2ncns2)cc1F)CC1(C)CCC1CN (single isomer, unassigned) [Example 52]: > 33800 nM
C[C@@H](N)[C@H](CNc1cc(F)c(S(=O)(=O)Nc2ncns2)cc1F)CC(N)C1(C)CC1 (stereo partly drawn): > 33800 nM

Here's the next entry for you.
Problem: For the compound C[C@@H](N)C(CNc1cc(F)c(S(=O)(=O)Nc2ncns2)cc1F)CC1NC2CCC1C2 (single isomer, unassigned) , report IC50.
Solution: > 33800 nM

---

- MEASURED TARGET: human Nav1.6 channels stably expressed in HEK 293 cells (Homo sapiens, UniProt Q9UQD0)
- Construct: expressed in transfected cells; host or cells: HEK 293
- METHOD SUMMARY: Qube automated patch-clamp assay, inhibition of sodium current
- Type: cell-based
- CONDITIONS: holding potential −65 mV; max concentration tested 33750 nM
Reported IC50 values for the following molecules.

Please review the entries below; each comes with its answer.
Cc1cc(S(=O)(=O)Nc2ncc(F)s2)c(F)cc1NC[C@H](CC(C)(C)N)[C@@H](C)N: 3590 nM
C[C@@H](N)C(CNc1cc(F)c(S(=O)(=O)Nc2ncns2)cc1F)C[C@@]1(C)CCC[C@@H]1CN (single isomer, unassigned) [Example 97]: > 33800 nM
C[C@@H](N)C(CNc1cc(F)c(S(=O)(=O)Nc2ncns2)cc1Cl)CC(C)(C)CN (single isomer, unassigned): > 33800 nM
C[C@@H](N)C(CNc1cc(F)c(S(=O)(=O)Nc2ncns2)cc1F)CC1CCCCC1CCN (single isomer, unassigned) [Example 63]: > 33800 nM
C[C@@H](N)C(CNc1cc(F)c(S(=O)(=O)Nc2ncns2)cc1F)CC1CCCC1CN (single isomer, unassigned) [Example 46]: > 33800 nM

Problem: Jot down IC50 (human Nav1.6 channels stably expressed in HEK 293 cells (Homo sapiens, UniProt Q9UQD0)) of COc1cc(S(=O)(=O)Nc2ncns2)c(F)cc1NCC(CC1(CN)CCC1)[C@@H](C)N (stereo partly shown) .
Solution: > 33800 nM

Problem: Jot down IC50 (human Nav1.6 channels stably expressed in HEK 293 cells (Homo sapiens, UniProt Q9UQD0)) of C[C@@H](N)C(CNc1cc(F)c(S(=O)(=O)Nc2ncns2)cc1F)C(N)C1CCC1 (single isomer, unassigned) .
Solution: > 33800 nM

Problem: Jot down IC50 (human Nav1.6 channels stably expressed in HEK 293 cells (Homo sapiens, UniProt Q9UQD0)) of CC(C)N(CC(CNc1cc(F)c(S(=O)(=O)Nc2ncns2)cc1F)[C@@H](C)N)C[C@@H](C)N (single isomer, unassigned) [Example 38] .
Solution: > 33800 nM

Problem: Jot down IC50 (human Nav1.6 channels stably expressed in HEK 293 cells (Homo sapiens, UniProt Q9UQD0)) of C[C@@H](N)[C@H](CNc1cc(F)c(S(=O)(=O)Nc2ncns2)cc1F)CC1(CCN(C)C)CCC1 .
Solution: > 33800 nM

Problem: Jot down IC50 (human Nav1.6 channels stably expressed in HEK 293 cells (Homo sapiens, UniProt Q9UQD0)) of CC(C)(CCN)C[C@@H](CNc1cc(F)c(S(=O)(=O)Nc2ncns2)cc1F)[C@H](N)C1CC1 .
Solution: > 33800 nM

Problem: Jot down IC50 (human Nav1.6 channels stably expressed in HEK 293 cells (Homo sapiens, UniProt Q9UQD0)) of C[C@@H](N)C(CNc1cc(F)c(S(=O)(=O)Nc2ncns2)cc1F)CC1CNCC1(C)C (single isomer, unassigned) .
Solution: > 33800 nM

Problem: Jot down IC50 (human Nav1.6 channels stably expressed in HEK 293 cells (Homo sapiens, UniProt Q9UQD0)) of C[C@@H](N)C(COc1ncc(S(=O)(=O)Nc2ncc(F)s2)cc1Cl)CC1(CCN)CCC1 (single isomer, unassigned) .
Solution: > 33800 nM

Problem: Jot down IC50 (human Nav1.6 channels stably expressed in HEK 293 cells (Homo sapiens, UniProt Q9UQD0)) of C[C@H]1NCCNCC(C)(C)C[C@H]1CNc1cc(F)c(S(=O)(=O)Nc2ncns2)cc1Cl .
Solution: 20700 nM
